Protocol summary: Plasma clearance in Balb/C mouse at 1 mg/kg, po or 5 mg/kg, iv
Type: ADME, organism-based
Condition label: in vivo
Readout kind: clearance

INSERT INTO assay_data (cpd_smiles, obs_value) VALUES
  ('C[C@@H]1CN(c2ncc(Cl)c(Nc3ccc4c(c3)n(CCC(C)(C)O)c(=O)n4C)n2)C[C@H](C)C1(F)F', '20 mL/min/kg');

====

Protocol summary: Intrinsic clearance in mouse microsomes
Type: ADME, Microsome
Readout kind: microsomal CLint

INSERT INTO assay_data (cpd_smiles, readout_kind, obs_value) VALUES
  ('COc1cc(Nc2nc(N3C[C@@H](C)N[C@@H](C)C3)ncc2F)ccc1NC(=O)c1ccc(C2=CCCC2)s1', 'microsomal CLint', '< 9.6 µL/min/mg');

====

Protocol summary: Oral bioavailability in SCID mouse plasma at 100 mg/kg
Assay type: ADME, organism-based
Readout kind: Cmax (nM)

INSERT INTO measurements (cpd_smiles, readout_kind, obs_value) VALUES
  ('CNC(=O)COc1cc2cc(Nc3nc(N4C[C@H](C)C[C@H](C)C4)ncc3Cl)ccc2n(C)c1=O', 'Cmax', 599);

====

System: SUD4
Protocol summary: cells
Condition label: Homo sapiens, SU-DHL-4
Description: Antiproliferative activity against BCL-6 dependent human SU-DHL-4 cells by CCK-8 assay
pIC50: −log10 of the molar value.
Readout kind: pIC50

INSERT INTO measurements (cpd_smiles, readout_kind, obs_value) VALUES
  ('COc1cc(Nc2nc(N3C[C@@H](C)N[C@@H](C)C3)ncc2F)ccc1NC(=O)c1ccc(C2=CCCC2)s1', 'pIC50', 6.00);

====

Protocol summary: Oral bioavailability in SCID mouse plasma at 10 mg/kg
Type: ADME, organism-based
Set-up: dose 10 mg/kg, route po
Readout kind: Cmax

INSERT INTO assay_data (cpd_smiles, readout_kind, obs_value) VALUES
  ('CNC(=O)COc1cc2cc(Nc3nc(N4C[C@H](C)C[C@H](C)C4)ncc3Cl)ccc2n(C)c1=O', 'Cmax', '193 nM');

====

Protocol summary: Oral bioavailability in SCID mouse plasma at 10 mg/kg
Assay type: ADME, organism-based
Set-up: dose 10 mg/kg, route po
Readout kind: AUC (µM·h)

INSERT INTO results (cpd_smiles, unit_abbrev, obs_value) VALUES
  ('CNC(=O)COc1cc2cc(Nc3nc(N4C[C@H](C)C[C@H](C)C4)ncc3Cl)ccc2n(C)c1=O', 'µM·h', 1.86);

====

Protocol summary: Aqueous solubility of the compound
Assay type: physicochemical
Condition label: buffer
Readout kind: solubility (µM)

INSERT INTO measurements (cpd_smiles, qualifier_symbol, obs_value) VALUES
  ('Cn1c(=O)n(C)c2cc(Nc3ncccc3C#N)ccc21', '=', 300),
  ('N#Cc1c(NCC2CC2)ccnc1Cl', '=', 300),
  ('Cn1c(=O)n(C)c2cc(Nc3cc(SCc4ccccc4)ncn3)ccc21', '<', 30),
  ('N#Cc1c(NCc2ccccc2)ccnc1Cl', '=', 60);

====

Protocol summary: Metabolic stability in human liver microsome assessed as half life
Type: ADME
Condition label: liver microsomes
Readout kind: half-life

INSERT INTO measurements (cpd_smiles, obs_value) VALUES
  ('COc1cc(Nc2nc(N3C[C@@H](C)N[C@@H](C)C3)ncc2F)ccc1NC(=O)c1ccc(C2=CCCC2)s1', '> 1 h');
